# Target or system: kinases (Homo sapiens, UniProt P10721, V559D)
# Construct: purchased Eurofins/DiscoveRx; host or cells: E. coli BL21-derived host (T7 phage display) for most kinases; HEK-293 for the rest
# Sequence (P10721 26-976 V559D): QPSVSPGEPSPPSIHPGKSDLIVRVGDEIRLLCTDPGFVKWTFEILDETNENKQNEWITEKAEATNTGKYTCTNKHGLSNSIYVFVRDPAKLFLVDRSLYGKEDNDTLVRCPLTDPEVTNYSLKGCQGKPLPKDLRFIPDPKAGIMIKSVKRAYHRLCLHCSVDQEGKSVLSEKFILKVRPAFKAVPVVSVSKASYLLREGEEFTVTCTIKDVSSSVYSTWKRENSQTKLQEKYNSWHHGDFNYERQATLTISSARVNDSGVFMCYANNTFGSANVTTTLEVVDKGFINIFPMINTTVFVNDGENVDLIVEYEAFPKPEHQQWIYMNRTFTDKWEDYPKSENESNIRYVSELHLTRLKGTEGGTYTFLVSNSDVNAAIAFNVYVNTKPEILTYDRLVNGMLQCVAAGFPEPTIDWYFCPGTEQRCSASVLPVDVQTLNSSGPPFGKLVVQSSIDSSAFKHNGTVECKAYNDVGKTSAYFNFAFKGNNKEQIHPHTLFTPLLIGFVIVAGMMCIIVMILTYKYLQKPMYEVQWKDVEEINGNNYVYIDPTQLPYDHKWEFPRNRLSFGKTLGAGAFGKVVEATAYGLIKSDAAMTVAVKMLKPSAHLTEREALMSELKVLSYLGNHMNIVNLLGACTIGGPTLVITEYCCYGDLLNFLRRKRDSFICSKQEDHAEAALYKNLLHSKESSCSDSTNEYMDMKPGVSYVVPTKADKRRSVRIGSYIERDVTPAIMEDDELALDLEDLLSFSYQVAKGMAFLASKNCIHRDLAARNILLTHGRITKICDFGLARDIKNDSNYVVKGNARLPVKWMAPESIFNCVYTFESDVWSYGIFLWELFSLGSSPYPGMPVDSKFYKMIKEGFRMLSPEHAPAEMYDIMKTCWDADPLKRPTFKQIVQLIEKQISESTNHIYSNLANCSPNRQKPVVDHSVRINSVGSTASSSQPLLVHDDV
# Measurement protocol: KINOMEscan kinase binding assay (Eurofins/DiscoveRx), % Ctrl
# Condition: 1 μM; KIT(V559D)
Measured property: % Ctrl, KIT(V559D) (% Ctrl)

>>> df
                                   compound   measured_property  value
0  Cc1cc2c([nH]1)/C=C1\C(=O)Nc3cnc(nc31)N(C)CCCOCCN(C)C2=O [Ex.71]  % Ctrl, KIT(V559D)    100
1  Cc1cc2c([nH]1)/C=C1\C(=O)Nc3cc(Cl)c(cc31)OCCO[C@@H](C(=O)N[C@@H]1CCNC1)CN(C)C2=O [Ex. 136]  % Ctrl, KIT(V559D)     36
2  Cc1cc2c([nH]1)/C=C1\C(=O)Nc3ccc(cc31)O[C@@H](C)COCCN(C)C2=O [Ex. 92]  % Ctrl, KIT(V559D)     91
3  Cc1cc2c([nH]1)/C=C1\C(=O)Nc3ccc(nc31)-c1ccccc1OCCCNC2=O [Ex.22]  % Ctrl, KIT(V559D)     96
